test system: Aspergillus flavus; test: Minimum inhibitory concentration, YAG medium; type: cell-based; settings: banded MIC grade
// values below are reported MIC grade, A. FLAVUS, YAG media

In the examples that follow, each entry is paired with its recorded MIC grade, A. FLAVUS, YAG media.
NC1=NN=C(CCCCOCc2cccc(C(F)(F)F)c2)CS1 3 (3: 0.2-1 mg/L)
CCCc1ccc(C2=NN=C(N)SC2)cc1 2 (2: 1-5 mg/L)

Lab note: CCCOc1ccc(CCC2=NN=C(N)SC2)cc1 gave MIC grade, A. FLAVUS, YAG media of 3 (3: 0.2-1 mg/L)

For record CCCCOc1ccc(C2=NN=C(N)SC2)cc1 the listed MIC grade, A. FLAVUS, YAG media is 3 (3: 0.2-1 mg/L)

Looking up CCC(=O)OCC1=NN=C(N)SC1 , I found its MIC grade, A. FLAVUS, YAG media recorded as 3 (3: 0.2-1 mg/L)
